Where these numbers come from: PubChem BioAssay AID2060486

System: IGROV1 complex spheroids (HUVEC, MSC), viability % test/control
Test Protocol: Anticancer human tumor IGROV1 cell line growth inhibition [GQUAD];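 note: spheroids exposed to compounds for 7 days before readout; 100% = DMSO vehicle control viability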
Condition Context: second compound 1 µM; first compound 10 µM; hits give low values

# Compound, Unit Of Measure, viability, T/C
records = [
    ("C=CCn1c(=O)c2cnc(Nc3ccc(N4CCN(C)CC4)cc3)nc2n1-c1cccc(C(C)(C)O)n1 + Cc1cnc(CNC(=O)c2c(=O)c3ccc(N4CCCN(C)CC4)nc3n3c2sc2ccccc23)cn1", "%", 3.24),
    ("CCCS(=O)(=O)Nc1ccc(F)c(C(=O)c2c[nH]c3ncc(-c4ccc(Cl)cc4)cc23)c1F + Cc1cnc(CNC(=O)c2c(=O)c3ccc(N4CCCN(C)CC4)nc3n3c2sc2ccccc23)cn1", "%", 5.36),
    ("C=CCn1c(=O)c2cnc(Nc3ccc(N4CCN(C)CC4)cc3)nc2n1-c1cccc(C(C)(C)O)n1 + Cc1[nH]c2ccc(F)cc2c1-c1nc2c3cccnc3c3ncccc3c2[nH]1", "%", 1.76),
]
